Target: T1, OCT2 DBD (POU domain) (Homo sapiens, UniProt P09086 195-357)
T1 sequence: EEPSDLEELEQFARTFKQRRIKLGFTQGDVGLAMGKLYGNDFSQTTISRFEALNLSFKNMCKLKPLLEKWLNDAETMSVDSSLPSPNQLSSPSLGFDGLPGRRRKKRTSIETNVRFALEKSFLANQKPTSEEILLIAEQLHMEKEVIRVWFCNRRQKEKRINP
Test: fluorescence anisotropy; 0.35 M Na+, no poly[d(I-C)]; FP: 5 nM probe, 10 mM Bis-Tris pH 6.5, 0.01% BSA, 0.15-0.35 M NaCl, 25 C overnight, Hill fit with nH = 2 (macroscopic KD of dimer); EMSA: 10 nM DNA, PBS, 25 C o
Settings: protein: recombinant; tags: N-terminal His6 removed by thrombin; chain copies: 2; label: 5'-HEX; blunt; self-complementary, 2 copies of the strand

binder: MORE 22-bp, HEX-labelled (dsDNA) DNA 1: TCCTCATGCATATGCATGAGGA DNA 2: TCCTCATGCATATGCATGAGGA
Kd / nM: 1200
